Experiment: chemical genetic growth profiling, strain panel (AID 1159580);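 note: tested at 20 µM; growth read once vehicle control cultures reached saturation at 30 °C; 1 = growth at the plate median or of vehicle wells; lower values mean less growth of the strain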
Conditions: S. cerevisiae deletion strains, growth OD, locus YDR159W, strain sac3, stronger effect = lower value
Screen size: about 5,500 compounds; about 2,000 (36%) were called active. Not shown: some 18% with an inconclusive outcome. Some of the results follow.
endpoint: normalized growth

{"columns": ["compound", "numeric_result"],
 "data": [
  ["Nc1ccc(S(=O)(=O)Nc2nccs2)cc1", 1.02],
  ["CCCCC(CC)CN=C(N)NC(N)=NCCCCCCN=C(N)NC(N)=NCC(CC)CCCC (stereo not drawn)", 0.086],
  ["NC(=O)c1ccc(N)nc1", 0.978],
  ["CN(Cc1cc(Br)cc(Br)c1N)C1CCCCC1", 1.09],
  ["Nc1c(Br)cc(Br)cc1CNC1CCC(O)CC1 (stereo not drawn)", 0.997],
  ["CC(COc1ccccc1)N(CCCl)Cc1ccccc1 (stereo not drawn)", 0.978],
  ["CCn1cc(C(=O)O)c(=O)c2cnc(N3CCCC3)nc21", 1.01],
  ["Nc1nccs1", 0.953],
  ["COc1cc2c(cc1O)CC1c3c(cc(O)c(OC)c3-2)CCN1C (stereo not drawn)", 1.04],
  ["CCn1cc(C(=O)O)c(=O)c2cnc(N3CCNCC3)nc21", 0.945],
  ["NC(=O)c1cnccn1", 1],
  ["CCn1cc(C(=O)O)c(=O)c2ccc(C)nc21", 1.07],
  ["C[C@H](COc1ccccc1)N[C@H](C)[C@H](O)c1ccc(O)cc1", 0.99]
]}

* * *

Assay: chemical genetic growth profiling, strain panel (AID 1159580)
Details: S. cerevisiae deletion strains, growth OD, locus YOR083W, strain WHI5 (second series), stronger effect = lower value
Screen size: about 5,500 compounds; about 2,000 (36%) were called active. Another 18% or so got no clear call; they are omitted. The list shows a part of the results.
Label t when normalized growth < 1; otherwise f.

{"columns": ["entry_smiles", "group"],
 "data": [
  ["NC(=O)CI", "t"],
  ["COCC(=O)O[C@]1(CCN(C)CCCc2nc3ccccc3[nH]2)CCc2cc(F)ccc2[C@@H]1C(C)C", "f"],
  ["N=C(N)SCCc1cccc(CCSC(=N)N)c1", "t"],
  ["O=C1N=C(O)CN1/N=C\\c1ccc(-c2ccc([N+](=O)[O-])cc2)o1", "f"],
  ["CCN(CC)CCCCCCCCOC(=O)c1cc(OC)c(OC)c(OC)c1", "f"]
]}

* * *

Assay: chemical genetic growth profiling, strain panel (AID 1159580)
Conditions: S. cerevisiae deletion strains, growth OD, locus YKL085W, strain MDH1
In all, about 5,500 compounds went through this assay and about 2,000 (36%) were called active. Another 18% or so got no clear call; they are omitted. Cut-off read from the data, not from the text of the source: active = normalized growth mostly below about 0.91 (no sharp cut-off); inconclusive = no clear call, values can overlap the other calls; inactive = mostly above about 0.92. The list shows a part of the results.
Outcomes: active, inactive

{"columns": ["compound", "group"],
 "data": [
  ["CC(=O)OCC(=O)[C@@]12OC(C)(C)O[C@@H]1CC1C3C[C@H](F)C4=CC(=O)C=C[C@]4(C)[C@@]3(F)[C@@H](O)C[C@@]12C (stereo partly specified)", "inactive"],
  ["CC1(C)C2CC(=O)O[C@@]3(C)C4=CC(=O)O[C@@H](c5ccoc5)[C@]4(C)CCC3[C@@]2(C)C=C[C@H]1O (stereo partly specified)", "inactive"],
  ["NCCCCN=C(N)N", "inactive"],
  ["C[C@H](COc1ccccc1)N[C@H](C)[C@H](O)c1ccc(O)cc1", "inactive"],
  ["CCCCC(CC)CN=C(N)NC(N)=NCCCCCCN=C(N)NC(N)=NCC(CC)CCCC (stereo unspecified)", "active"],
  ["C[C@@]12C(=O)OC(=O)[C@]1(C)C1CCC2O1", "active"],
  ["Nc1nccs1", "inactive"],
  ["COc1ccc(-c2cc(C(F)F)nn2-c2ccc(S(N)(=O)=O)cc2)cc1F", "inactive"],
  ["NC(=O)c1cnccn1", "inactive"],
  ["C[C@@H]1C[C@@H]([C@H](O)CC2CC(=O)NC(=O)C2)C(=O)[C@@H](C)C1", "active"],
  ["O=C(O)P(=O)(O)O", "inactive"]
]}

* * *

Listed next: entries and their corresponding normalized growth.
Assay: chemical genetic growth profiling, strain panel (AID 1159580);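 note: tested at 20 µM; growth read once vehicle control cultures reached saturation at 30 °C; 1 = growth at the plate median or of vehicle wells; lower values mean less growth of the strain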
Details: S. cerevisiae deletion strains, growth OD, locus YEL037C, strain rad23, stronger effect = lower value
In all, about 5,500 compounds went through this assay and about 2,000 (36%) were called active. About 18% were inconclusive and are not listed. Some of the results follow.

{"columns": ["molecule", "normalized growth"],
 "data": [
  ["O=C(O)c1cc(=O)c2c(OCC(O)COc3cccc4oc(C(=O)O)cc(=O)c34)cccc2o1", 0.955],
  ["CC[C@]1(O)CC2CN(CCc3c([nH]c4ccccc34)[C@@](C(=O)OC)(c3cc4c(cc3OC)N(C=O)[C@H]3[C@@](O)(C(=O)OC)[C@H](OC(C)=O)[C@]5(CC)C=CCN6CC[C@]43[C@@H]65)C2)C1 (some centres undefined)", 0.981],
  ["NCc1ccc(S(N)(=O)=O)cc1", 0.992],
  ["O=C(O)CCC(=O)c1ccc(-c2ccccc2)cc1", 0.97]
]}

* * *

Experiment: chemical genetic growth profiling, strain panel (AID 1159580);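 note: tested at 20 µM; growth read once vehicle control cultures reached saturation at 30 °C; 1 = growth at the plate median or of vehicle wells; lower values mean less growth of the strain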
Conditions: S. cerevisiae deletion strains, growth OD, locus YPR106W, strain ISR1
Among all 5,500 compounds or so, about 2,000 (36%) were called active. Another 18% or so got no clear call; they are omitted. Cut-off read from the data, not from the text of the source: active = normalized growth mostly below about 0.91 (no sharp cut-off); inconclusive = no clear call, values can overlap the other calls; inactive = mostly above about 0.92. This is one part of the list.
Outcomes: yes (1) (active), no (0) (inactive)

{"columns": ["compound", "group"],
 "data": [
  ["CC(C)(O)C#Cc1ccc(/C=N\\Nc2c(Cl)cc(Cl)cc2Cl)cc1", "no (0)"],
  ["OC(c1ccc(C(F)(F)F)cc1)c1cccc(C(F)(F)F)c1 (centres undefined)", "no (0)"],
  ["Nc1cc(-c2ccc(OC(F)(F)F)cc2)nn1-c1ccc(Cl)c(Cl)c1", "yes (1)"],
  ["O=C(Nc1cccc(C(F)(F)F)c1)Oc1ccc(F)cc1Cl", "no (0)"],
  ["COc1cc(C(=O)Oc2c(Cl)cc(Cl)cc2C=Nc2ccc([N+](=O)[O-])cc2C#N)cc(OC)c1OC", "no (0)"],
  ["CSc1cccc(N2C(=O)CC(c3c(Cl)cccc3Cl)CC2=O)c1", "no (0)"],
  ["O=C(Nc1ccc(Cl)cc1Cl)c1cnccc1C(F)(F)F", "no (0)"],
  ["COc1ccccc1NC(=O)Nc1nn(C)c2cccc(OC)c12", "no (0)"],
  ["Cc1cc(C(=O)O/N=C(/N)c2ccc(C(C)(C)C)cc2)no1", "no (0)"],
  ["CCCCCc1ccc(S(=O)(=O)Nc2ccc3c(c2)C(=O)OC3)cc1", "no (0)"],
  ["Clc1ccc(-c2noc(CSC3=NCCN3)n2)cc1", "no (0)"],
  ["CCOC(=O)c1c(N=Cc2cc(Br)c(Br)cc2O)sc2c1CCCC2", "no (0)"],
  ["CN(C)/C=C/C(=O)c1ccc(C#Cc2ccccc2)cc1", "no (0)"],
  ["CCOC(=O)CCc1cc(N=Cc2cc(Br)ccc2O)c(O)c(N=Cc2cc(Br)ccc2O)c1", "no (0)"],
  ["Cc1cc(C(=O)O/N=C(/N)c2ccc([N+](=O)[O-])o2)no1", "no (0)"],
  ["CCCCCCCC1CCC/C1=N/OC(=O)c1cccs1 (centres undefined)", "no (0)"],
  ["CCOC(=O)NC(=S)NC12CC3CC(CC(C3)C1)C2", "no (0)"],
  ["CC1(C)C/C(=N/Nc2ccc(C(F)(F)F)cc2)c2cc(C(C)(C)C)c(O)c(O)c2O1", "yes (1)"],
  ["COc1cc(C(=O)Oc2c(Cl)cc(Cl)cc2C=Nc2cccc([N+](=O)[O-])c2)cc(OC)c1OC", "no (0)"],
  ["NC(=NC(=O)c1ccc(Cl)cc1)c1cccs1", "no (0)"],
  ["O=C(CO/N=C\\c1ccc(Cl)cc1Cl)NNC(=S)Nc1cc(Cl)ccc1Cl", "no (0)"],
  ["CC12CC[C@@H](O)CC1=CC[C@@H]1C2CCC2(C)C(=O)CC[C@@H]12 (some centres undefined)", "no (0)"],
  ["Cc1nc(C(F)(F)F)c(C(=O)O/N=C(/N)c2ccc(Cl)cc2)s1", "no (0)"],
  ["CC(C)(O)C#Cc1ccc(/C=N\\Nc2ccccc2)cc1", "no (0)"]
]}

* * *

Parameter normalized growth: see the listing below.
Assay: chemical genetic growth profiling, strain panel (AID 1159580);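 note: tested at 20 µM; growth read once vehicle control cultures reached saturation at 30 °C; 1 = growth at the plate median or of vehicle wells; lower values mean less growth of the strain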
Conditions: S. cerevisiae deletion strains, growth OD, locus YNL161W, strain CBK1, stronger effect = lower value
Among all 5,500 compounds or so, about 2,000 (36%) were called active. Not shown: some 18% with an inconclusive outcome. This is one part of the list.

{"columns": ["compound", "normalized growth"],
 "data": [
  ["O=C(NCc1ccco1)c1csc(C2COc3ccccc3O2)n1 (stereo unspecified)", "0.921 (inactive)"],
  ["COc1cc(Cl)c(NS(=O)(=O)c2cc(Br)c(Br)s2)c(OC)c1", "0.97 (inactive)"],
  ["CSc1cccc(N2C(=O)CC(c3c(Cl)cccc3Cl)CC2=O)c1", "0.981 (inactive)"],
  ["CN(C)/C=C/C(=O)c1ccc(C#Cc2ccccc2)cc1", "0.965 (inactive)"],
  ["CCCCCCCC1CCC/C1=N/OC(=O)c1cccs1 (stereo unspecified)", "1.02 (inactive)"],
  ["COc1ccccc1C(C[N+](=O)[O-])c1c(N)n(C)c(=O)n(C)c1=O (stereo unspecified)", "0.957 (inactive)"],
  ["O=S(=O)(Nc1cc(C(F)(F)F)ccc1F)c1cc(C(F)(F)F)ccc1Cl", "0.939 (inactive)"],
  ["CCCCCc1ccc(S(=O)(=O)Nc2ccc3c(c2)C(=O)OC3)cc1", "0.978 (inactive)"],
  ["COc1ccccc1NC(=O)Nc1nn(C)c2cccc(OC)c12", "0.929 (inactive)"],
  ["O=C(Nc1ccc(Cl)cc1Cl)c1cnccc1C(F)(F)F", "0.974 (inactive)"],
  ["CCc1cc2c(cc1-c1csc(C/C(N)=N\\O)n1)C(C)(C)CCC2(C)C", "0.977 (inactive)"]
]}
